Form field: zone of inhibition at 50 µg/mL (one value per entry).
# Tested on: Escherichia coli
# test: Antibacterial activity against Escherichia coli at 50 ug/ml
# Assay type: functional
# runParameters: read-out: DIZ
recordedMetric: zone of inhibition at 50 µg/mL (mm)

INSERT INTO results (smiles, recordedmetric, measuredresult) VALUES
  ('CCN(CC)CN1C(=O)/C(=N\n2c(Cc3ccccc3)n[nH]c2=S)c2cc(Br)ccc21', 'zone of inhibition at 50 µg/mL', 10),
  ('O=C1Nc2ccc(Br)cc2/C1=N/n1c(Cc2ccccc2)n[nH]c1=S', 'zone of inhibition at 50 µg/mL', 11),
  ('CCN(CC)CN1C(=O)/C(=N\n2c(Cc3ccccc3)n[nH]c2=S)c2ccccc21', 'zone of inhibition at 50 µg/mL', 9),
  ('O=C1/C(=N\n2c(Cc3ccccc3)n[nH]c2=S)c2ccccc2N1CN1CCCCC1', 'zone of inhibition at 50 µg/mL', 11),
  ('O=C1/C(=N\n2c(Cc3ccccc3)n[nH]c2=S)c2cc(Cl)ccc2N1CN1CCOCC1', 'zone of inhibition at 50 µg/mL', 11),
  ('O=C1Nc2ccc(Cl)cc2/C1=N/n1c(Cc2ccccc2)n[nH]c1=S', 'zone of inhibition at 50 µg/mL', 11);
